- Test system: Nucleic Acid
- test-method-notes: Binding affinity to Poly dA-Poly dT DNA assessed as change in melting temperature at 0.3 compound to polynucleotide ratio by UV-VIS spectral study
- Assay type: nucleic-acid assay
measurement-name: ΔTm (°C)
Numbers only, in °C.

Previously resolved entries follow.
>>> data_value("CC(C)NC(=N)c1ccc(NC(=O)c2ccc(C(=O)Nc3ccc(C(=N)NC(C)C)cc3)o2)cc1.Cl.Cl")
29.5
>>> data_value("CC(C)NC(=N)c1ccc(NC(=O)c2cccc(C(=O)Nc3ccc(C(=N)NC(C)C)cc3)n2)cc1.Cl.Cl")
24.1
>>> data_value("Cl.Cl.N=C(N)c1ccc(NC(=O)c2cccc(C(=O)Nc3ccc(C(=N)N)cc3)n2)cc1")
20.4
>>> data_value("CC(C)NC(=N)c1ccc(C(=O)Nc2cccc(NC(=O)c3ccc(C(=N)NC(C)C)cc3)n2)cc1.Cl.Cl")
30.5
>>> data_value("Cl.Cl.N=C(N)c1ccc(NC(=O)c2ccc(C(=O)Nc3ccc(C(=N)N)cc3)o2)cc1")
30.2

Lab note: next compound to report on.
Report ΔTm for `Cl.Cl.N=C(N)c1ccc(C(=O)Nc2cccc(NC(=O)c3ccc(C(=N)N)cc3)n2)cc1` please.
29.3
